Give measured IC50 or % Inhibition TF-VIIa (30 µM) for each item. Keep answers brief.
- measured target: TF-VIIa (Homo sapiens, UniProt P08709)
- Construct: 2nM recombinant human factor VIIa; purchased American Diagnostica, Greenwich CT; host or cells: soluble TF made in house in E. coli
- Sequence (P08709 213-466 limits assumed): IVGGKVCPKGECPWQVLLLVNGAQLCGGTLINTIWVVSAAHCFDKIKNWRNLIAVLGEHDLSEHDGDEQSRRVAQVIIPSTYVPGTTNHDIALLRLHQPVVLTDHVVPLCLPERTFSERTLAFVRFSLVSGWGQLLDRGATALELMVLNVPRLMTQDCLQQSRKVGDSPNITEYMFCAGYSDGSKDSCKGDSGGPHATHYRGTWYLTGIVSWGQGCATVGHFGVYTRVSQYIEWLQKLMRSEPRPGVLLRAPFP
- Sequence (P08709 61-212 limits assumed): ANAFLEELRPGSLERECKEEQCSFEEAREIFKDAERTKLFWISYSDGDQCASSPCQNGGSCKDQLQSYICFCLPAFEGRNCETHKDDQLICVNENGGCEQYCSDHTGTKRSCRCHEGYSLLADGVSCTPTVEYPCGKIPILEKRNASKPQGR
- Sequence (P13726 33-251 partner limits assumed): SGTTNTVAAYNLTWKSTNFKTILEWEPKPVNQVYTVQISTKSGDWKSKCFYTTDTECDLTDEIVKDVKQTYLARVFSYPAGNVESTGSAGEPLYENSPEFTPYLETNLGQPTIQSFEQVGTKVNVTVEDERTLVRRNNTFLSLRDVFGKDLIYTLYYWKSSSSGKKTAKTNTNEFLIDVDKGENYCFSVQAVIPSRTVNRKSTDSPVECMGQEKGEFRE
- protocol text: TF-VIIa Assay
- Type: biochemical
Dear colleague, please return just the value in %, with no unit written.

Problem: Give TF-VIIa (Homo sapiens, UniProt P08709) IC50 or % Inhibition TF-VIIa (30 µM) for N=C(N)c1ccc(CNC(=O)Cn2c(-c3ccc4c(c3)OCO4)c(Cl)nc(NCCN3CCOCC3)c2=O)cc1 [1471-44]
Result: 34

Problem: Reported IC50 or % Inhibition TF-VIIa (30 µM) for TF-VIIa (Homo sapiens, UniProt P08709), given N=C(N)c1ccc(CNC(=O)C(Cc2ccccc2)n2c(-c3ccccc3)c(Cl)nc(NCCc3cccc(Cl)c3)c2=O)cc1 (stereo not shown) [1517-20] ?
Result: 22

Problem: Field: IC50 or % Inhibition TF-VIIa (30 µM) (TF-VIIa (Homo sapiens, UniProt P08709)). Entry: COc1ccc(-c2c(Cl)nc(NCCc3cccnc3)c(=O)n2CC(=O)NCc2ccc(C(=N)N)cc2)cc1 [1471-40]
Result: 40

// data source = patent EP1202975B1
